assay.method.text: Phototoxicity against 50 mW/cm^2 white light irradiated Vero cells assessed as viable cells pretreated at 2.5 uM after 48 hrs by MTT assay
Format: cell-based
experimental.context: chlorocebus sabaeus, Vero cells; read-out: Activity
We begin with a simple list: items and their reported viability at 48 h, 2.5 µM.
Numeric answer plus unit only.

>>> result_value("O=C(O)c1ccc(-c2c3nc(c(-c4ccncc4)c4ccc([nH]4)c(-c4ccncc4)c4nc(c(-c5ccncc5)c5ccc2[nH]5)C=C4)C=C3)cc1")
"11.4%"
>>> result_value("O=C(OC[C@H]1OC(O)[C@H](O)[C@@H](O)[C@H]1O)c1ccc(-c2c3nc(c(-c4ccncc4)c4ccc([nH]4)c(-c4ccncc4)c4nc(c(-c5ccncc5)c5ccc2[nH]5)C=C4)C=C3)cc1 (stereo partly drawn)")
"4.4%"

Now look at this one.
**Query** What value of measured viability at 48 h, 2.5 µM is listed for C[n+]1ccc(-c2c3nc(c(-c4cc[n+](C)cc4)c4ccc([nH]4)c(-c4cc[n+](C)cc4)c4nc(c(-c5ccc(C(=O)O)cc5)c5ccc2[nH]5)C=C4)C=C3)cc1.[I-].[I-].[I-] ?
**Result** 56.3%

###

assay.method.text: Photostability assessed after irradiation with 50 mW/cm^2 white light for 3 mins
Format: ADME
experimental.context: 0.05 h
We begin with a simple list: items and their reported Activity.
Numeric answer plus unit only.

>>> result_value("C[n+]1ccc(-c2c3nc(c(-c4cc[n+](C)cc4)c4ccc([nH]4)c(-c4cc[n+](C)cc4)c4nc(c(-c5ccc(C(=O)O)cc5)c5ccc2[nH]5)C=C4)C=C3)cc1.[I-].[I-].[I-]")
"98%"

**Query** What value of measured Activity is listed for O=C(OC[C@H]1OC(O)[C@H](O)[C@@H](O)[C@H]1O)c1ccc(-c2c3nc(c(-c4ccncc4)c4ccc([nH]4)c(-c4ccncc4)c4nc(c(-c5ccncc5)c5ccc2[nH]5)C=C4)C=C3)cc1 (some centres undefined) ?
**Result** 98%

**Query** What value of measured Activity is listed for CC1(C)O[C@H]2[C@@H](O1)[C@@H](COC(=O)c1ccc(-c3c4nc(c(-c5ccncc5)c5ccc([nH]5)c(-c5ccncc5)c5nc(c(-c6ccncc6)c6ccc3[nH]6)C=C5)C=C4)cc1)O[C@@H]1OC(C)(C)O[C@@H]12 ?
**Result** 98%

**Query** What value of measured Activity is listed for O=C(O)c1ccc(-c2c3nc(c(-c4ccncc4)c4ccc([nH]4)c(-c4ccncc4)c4nc(c(-c5ccncc5)c5ccc2[nH]5)C=C4)C=C3)cc1 ?
**Result** 99%

###

assay.method.text: Photostability assessed after irradiation with 50 mW/cm^2 white light for 5 mins
Format: ADME
We begin with a simple list: items and their reported Activity.

**Query** What value of measured Activity is listed for O=C(OC[C@H]1OC(O)[C@H](O)[C@@H](O)[C@H]1O)c1ccc(-c2c3nc(c(-c4ccncc4)c4ccc([nH]4)c(-c4ccncc4)c4nc(c(-c5ccncc5)c5ccc2[nH]5)C=C4)C=C3)cc1 (some centres undefined) ?
**Result** 97%

**Query** What value of measured Activity is listed for O=C(O)c1ccc(-c2c3nc(c(-c4ccncc4)c4ccc([nH]4)c(-c4ccncc4)c4nc(c(-c5ccncc5)c5ccc2[nH]5)C=C4)C=C3)cc1 ?
**Result** 96%

**Query** What value of measured Activity is listed for C[n+]1ccc(-c2c3nc(c(-c4cc[n+](C)cc4)c4ccc([nH]4)c(-c4cc[n+](C)cc4)c4nc(c(-c5ccc(C(=O)O)cc5)c5ccc2[nH]5)C=C4)C=C3)cc1.[I-].[I-].[I-] ?
**Result** 98%

**Query** What value of measured Activity is listed for CC1(C)O[C@H]2[C@@H](O1)[C@@H](COC(=O)c1ccc(-c3c4nc(c(-c5ccncc5)c5ccc([nH]5)c(-c5ccncc5)c5nc(c(-c6ccncc6)c6ccc3[nH]6)C=C5)C=C4)cc1)O[C@@H]1OC(C)(C)O[C@@H]12 ?
**Result** 98%

###

assay.method.text: Photostability assessed after irradiation with 50 mW/cm^2 white light for 1 min
Type: ADME
recorded.metric: Activity (%)
Field: numeric (%). Do not append units.

>>> result_value("CC1(C)O[C@H]2[C@@H](O1)[C@@H](COC(=O)c1ccc(-c3c4nc(c(-c5ccncc5)c5ccc([nH]5)c(-c5ccncc5)c5nc(c(-c6ccncc6)c6ccc3[nH]6)C=C5)C=C4)cc1)O[C@@H]1OC(C)(C)O[C@@H]12")
98

**Query** What value of measured Activity is listed for C[n+]1ccc(-c2c3nc(c(-c4cc[n+](C)cc4)c4ccc([nH]4)c(-c4cc[n+](C)cc4)c4nc(c(-c5ccc(C(=O)O)cc5)c5ccc2[nH]5)C=C4)C=C3)cc1.[I-].[I-].[I-] ?
**Result** 98

**Query** What value of measured Activity is listed for O=C(OC[C@H]1OC(O)[C@H](O)[C@@H](O)[C@H]1O)c1ccc(-c2c3nc(c(-c4ccncc4)c4ccc([nH]4)c(-c4ccncc4)c4nc(c(-c5ccncc5)c5ccc2[nH]5)C=C4)C=C3)cc1 (some centres undefined) ?
**Result** 100

**Query** What value of measured Activity is listed for O=C(O)c1ccc(-c2c3nc(c(-c4ccncc4)c4ccc([nH]4)c(-c4ccncc4)c4nc(c(-c5ccncc5)c5ccc2[nH]5)C=C4)C=C3)cc1 ?
**Result** 99

###

assay.method.text: Phototoxicity against 50 mW/cm^2 white light irradiated Vero cells assessed as viable cells assessed as viable cells pretreated at 0.5 uM after 48 hrs by MTT assay
Type: cell-based
experimental.context: chlorocebus sabaeus, Vero cells; read-out: Activity
We begin with a simple list: items and their reported viability at 48 h, 0.5 µM.
Field: numeric (%). Do not append units.

>>> result_value("C[n+]1ccc(-c2c3nc(c(-c4cc[n+](C)cc4)c4ccc([nH]4)c(-c4cc[n+](C)cc4)c4nc(c(-c5ccc(C(=O)O)cc5)c5ccc2[nH]5)C=C4)C=C3)cc1.[I-].[I-].[I-]")
89.2
>>> result_value("O=C(OC[C@H]1OC(O)[C@H](O)[C@@H](O)[C@H]1O)c1ccc(-c2c3nc(c(-c4ccncc4)c4ccc([nH]4)c(-c4ccncc4)c4nc(c(-c5ccncc5)c5ccc2[nH]5)C=C4)C=C3)cc1 (stereo partly drawn)")
55.5

**Query** What value of measured viability at 48 h, 0.5 µM is listed for O=C(O)c1ccc(-c2c3nc(c(-c4ccncc4)c4ccc([nH]4)c(-c4ccncc4)c4nc(c(-c5ccncc5)c5ccc2[nH]5)C=C4)C=C3)cc1 ?
**Result** 76.6

###

assay.method.text: Photostability assessed after irradiation with 50 mW/cm^2 white light for 10 mins
Assay type: ADME
recorded.metric: Activity (%)
Field: numeric (%). Do not append units.

Examples with answers:
>>> result_value("O=C(OC[C@H]1OC(O)[C@H](O)[C@@H](O)[C@H]1O)c1ccc(-c2c3nc(c(-c4ccncc4)c4ccc([nH]4)c(-c4ccncc4)c4nc(c(-c5ccncc5)c5ccc2[nH]5)C=C4)C=C3)cc1 (some centres undefined)")
88
>>> result_value("C[n+]1ccc(-c2c3nc(c(-c4cc[n+](C)cc4)c4ccc([nH]4)c(-c4cc[n+](C)cc4)c4nc(c(-c5ccc(C(=O)O)cc5)c5ccc2[nH]5)C=C4)C=C3)cc1.[I-].[I-].[I-]")
98
>>> result_value("CC1(C)O[C@H]2[C@@H](O1)[C@@H](COC(=O)c1ccc(-c3c4nc(c(-c5ccncc5)c5ccc([nH]5)c(-c5ccncc5)c5nc(c(-c6ccncc6)c6ccc3[nH]6)C=C5)C=C4)cc1)O[C@@H]1OC(C)(C)O[C@@H]12")
94

**Query** What value of measured Activity is listed for O=C(O)c1ccc(-c2c3nc(c(-c4ccncc4)c4ccc([nH]4)c(-c4ccncc4)c4nc(c(-c5ccncc5)c5ccc2[nH]5)C=C4)C=C3)cc1 [PORPHIRIN] ?
**Result** 92

###

We begin with a simple list: items and their reported Activity.
assay.method.text: Photostability assessed after irradiation with 50 mW/cm^2 white light for 15 mins
Type: ADME
experimental.context: 0.25 h
Numeric answer plus unit only.

Examples with answers:
>>> result_value("CC1(C)O[C@H]2[C@@H](O1)[C@@H](COC(=O)c1ccc(-c3c4nc(c(-c5ccncc5)c5ccc([nH]5)c(-c5ccncc5)c5nc(c(-c6ccncc6)c6ccc3[nH]6)C=C5)C=C4)cc1)O[C@@H]1OC(C)(C)O[C@@H]12")
"93%"
>>> result_value("O=C(O)c1ccc(-c2c3nc(c(-c4ccncc4)c4ccc([nH]4)c(-c4ccncc4)c4nc(c(-c5ccncc5)c5ccc2[nH]5)C=C4)C=C3)cc1 [PORPHIRIN]")
"87%"
>>> result_value("C[n+]1ccc(-c2c3nc(c(-c4cc[n+](C)cc4)c4ccc([nH]4)c(-c4cc[n+](C)cc4)c4nc(c(-c5ccc(C(=O)O)cc5)c5ccc2[nH]5)C=C4)C=C3)cc1.[I-].[I-].[I-]")
"97%"

Now look at this one.
**Query** What value of measured Activity is listed for O=C(OC[C@H]1OC(O)[C@H](O)[C@@H](O)[C@H]1O)c1ccc(-c2c3nc(c(-c4ccncc4)c4ccc([nH]4)c(-c4ccncc4)c4nc(c(-c5ccncc5)c5ccc2[nH]5)C=C4)C=C3)cc1 (some centres undefined) ?
**Result** 83%
